Source: patent US11730778B2

# Test system: intestinal microbiota (fecal samples) of human subjects
# PROTOCOL NOTES: in-vitro fermentations of fecal samples (intestinal microbiota-representing microarray) with phytonutrient precursor compounds
# Assay type: in vitro ADME
# CONDITION SUMMARY: fecal sample of Subject 10 (S10), in-vitro fermentation
MEASURE: Phytonutrient Producer Status: conversion of the phytonutrient precursor compound, S10

- COMPOUND: "COc1cc(C[C@@H](CO[C@@H]2O[C@H](CO)[C@@H](O)[C@H](O)[C@H]2O)[C@H](CO[C@@H]2O[C@H](CO)[C@@H](O)[C@H](O)[C@H]2O)Cc2ccc(O)c(OC)c2)ccc1O [Secoisolariciresinol diglucoside]"
  REPORTED: "+"
- COMPOUND: "O=c1oc2c(O)c(O)cc3c(=O)oc4c(O)c(O)cc1c4c23 [Ellagic acid]"
  REPORTED: "±"
- COMPOUND: "Oc1cc(O)c2c(c1)O[C@H](c1cc(O)c(O)c(O)c1)[C@H](O)C2 [Epigallocatechol]"
  REPORTED: "+"

---

# Test system: intestinal microbiota (fecal samples) of human subjects
# PROTOCOL NOTES: in-vitro fermentations of fecal samples (intestinal microbiota-representing microarray) with phytonutrient precursor compounds
# Assay type: in vitro ADME
# CONDITION SUMMARY: fecal sample of Subject 2 (S2), in-vitro fermentation
MEASURE: Phytonutrient Producer Status: conversion of the phytonutrient precursor compound, S2

- COMPOUND: "COc1cc(C[C@@H](CO[C@@H]2O[C@H](CO)[C@@H](O)[C@H](O)[C@H]2O)[C@H](CO[C@@H]2O[C@H](CO)[C@@H](O)[C@H](O)[C@H]2O)Cc2ccc(O)c(OC)c2)ccc1O [Secoisolariciresinol diglucoside]"
  REPORTED: "+"
- COMPOUND: "O=c1oc2c(O)c(O)cc3c(=O)oc4c(O)c(O)cc1c4c23"
  REPORTED: "±"
- COMPOUND: "O=c1c(O)c(-c2ccc(O)c(O)c2)oc2cc(O)cc(O)c12"
  REPORTED: "+"

---

# Test system: intestinal microbiota (fecal samples) of human subjects
# PROTOCOL NOTES: in-vitro fermentations of fecal samples (intestinal microbiota-representing microarray) with phytonutrient precursor compounds
# Format: in vitro ADME
# CONDITION SUMMARY: fecal sample of Subject 8 (S8), in-vitro fermentation
# Description: The phytonutrient producer status of 11 human subjects (“Subjects 1-11”, or “S1”-“S11”, respectively) was assessed by determining the microbial metabolism of various phytonutrient precursor compounds. […] The metabolism of the phytonutrient precursor compound in each assay was then determined via monitoring conversion (+), partial conversion (±), or no conversion (−) of the phytonutrient precursor compound over time.
MEASURE: Phytonutrient Producer Status: conversion of the phytonutrient precursor compound, S8

- COMPOUND: "Oc1cc(O)c2c(c1)O[C@H](c1cc(O)c(O)c(O)c1)[C@H](O)C2 [Epigallocatechol]"
  ASSAY TARGET: "intestinal microbiota (fecal samples) of human subjects"
  REPORTED: "+"
- COMPOUND: "COc1ccc([C@@H]2CC(=O)c3c(O)cc(O[C@@H]4O[C@H](CO[C@@H]5O[C@@H](C)[C@H](O)[C@@H](O)[C@H]5O)[C@@H](O)[C@H](O)[C@H]4O)cc3O2)cc1O"
  ASSAY TARGET: "intestinal microbiota (fecal samples) of human subjects"
  REPORTED: "+"
- COMPOUND: "COc1cc(C[C@@H](CO[C@@H]2O[C@H](CO)[C@@H](O)[C@H](O)[C@H]2O)[C@H](CO[C@@H]2O[C@H](CO)[C@@H](O)[C@H](O)[C@H]2O)Cc2ccc(O)c(OC)c2)ccc1O [Secoisolariciresinol diglucoside]"
  ASSAY TARGET: "intestinal microbiota (fecal samples) of human subjects"
  REPORTED: "±"
- COMPOUND: "O=c1c(O)c(-c2ccc(O)c(O)c2)oc2cc(O)cc(O)c12"
  ASSAY TARGET: "intestinal microbiota (fecal samples) of human subjects"
  REPORTED: "−"
- COMPOUND: "O=c1oc2c(O)c(O)cc3c(=O)oc4c(O)c(O)cc1c4c23"
  ASSAY TARGET: "intestinal microbiota (fecal samples) of human subjects"
  REPORTED: "±"
- COMPOUND: "OC[C@H]1O[C@@H](Oc2cc3c(O)cc(O)cc3[o+]c2-c2ccc(O)c(O)c2)[C@H](O)[C@@H](O)[C@@H]1O [Cyanidin-3-glucoside]"
  ASSAY TARGET: "intestinal microbiota (fecal samples) of human subjects"
  REPORTED: "±"

---

# System: intestinal microbiota (fecal samples) of human subjects
# PROTOCOL NOTES: in-vitro fermentations of fecal samples (intestinal microbiota-representing microarray) with phytonutrient precursor compounds
# Assay type: in vitro ADME
# CONDITION SUMMARY: fecal sample of Subject 5 (S5), in-vitro fermentation
MEASURE: Phytonutrient Producer Status: conversion of the phytonutrient precursor compound, S5

- COMPOUND: "O=c1oc2c(O)c(O)cc3c(=O)oc4c(O)c(O)cc1c4c23 [Ellagic acid]"
  REPORTED: "−"
- COMPOUND: "O=c1c(O)c(-c2ccc(O)c(O)c2)oc2cc(O)cc(O)c12 [Quercetin]"
  REPORTED: "−"
- COMPOUND: "OC[C@H]1O[C@@H](Oc2cc3c(O)cc(O)cc3[o+]c2-c2ccc(O)c(O)c2)[C@H](O)[C@@H](O)[C@@H]1O [Cyanidin-3-glucoside]"
  REPORTED: "±"
- COMPOUND: "Oc1cc(O)c2c(c1)O[C@H](c1cc(O)c(O)c(O)c1)[C@H](O)C2 [Epigallocatechol]"
  REPORTED: "+"
- COMPOUND: "COc1ccc([C@@H]2CC(=O)c3c(O)cc(O[C@@H]4O[C@H](CO[C@@H]5O[C@@H](C)[C@H](O)[C@@H](O)[C@H]5O)[C@@H](O)[C@H](O)[C@H]4O)cc3O2)cc1O [Hesperidin]"
  REPORTED: "±"
- COMPOUND: "COc1cc(C[C@@H](CO[C@@H]2O[C@H](CO)[C@@H](O)[C@H](O)[C@H]2O)[C@H](CO[C@@H]2O[C@H](CO)[C@@H](O)[C@H](O)[C@H]2O)Cc2ccc(O)c(OC)c2)ccc1O [Secoisolariciresinol diglucoside]"
  REPORTED: "+"

---

# System: intestinal microbiota (fecal samples) of human subjects
# PROTOCOL NOTES: in-vitro fermentations of fecal samples (intestinal microbiota-representing microarray) with phytonutrient precursor compounds
# Assay type: in vitro ADME
# CONDITION SUMMARY: fecal sample of Subject 4 (S4), in-vitro fermentation
MEASURE: Phytonutrient Producer Status: conversion of the phytonutrient precursor compound, S4

- COMPOUND: "Oc1cc(O)c2c(c1)O[C@H](c1cc(O)c(O)c(O)c1)[C@H](O)C2 [Epigallocatechol]"
  REPORTED: "+"
- COMPOUND: "COc1ccc([C@@H]2CC(=O)c3c(O)cc(O[C@@H]4O[C@H](CO[C@@H]5O[C@@H](C)[C@H](O)[C@@H](O)[C@H]5O)[C@@H](O)[C@H](O)[C@H]4O)cc3O2)cc1O [Hesperidin]"
  REPORTED: "+"
- COMPOUND: "O=c1c(O)c(-c2ccc(O)c(O)c2)oc2cc(O)cc(O)c12 [Quercetin]"
  REPORTED: "+"

---

# System: intestinal microbiota (fecal samples) of human subjects
# PROTOCOL NOTES: in-vitro fermentations of fecal samples (intestinal microbiota-representing microarray) with phytonutrient precursor compounds
# Assay type: in vitro ADME
# CONDITION SUMMARY: fecal sample of Subject 4 (S4), in-vitro fermentation
MEASURE: Phytonutrient Producer Status: conversion of the phytonutrient precursor compound, S4

- MOLECULE: "O=c1oc2c(O)c(O)cc3c(=O)oc4c(O)c(O)cc1c4c23 [Ellagic acid]"
  REPORTED: "−"
- MOLECULE: "COc1cc(C[C@@H](CO[C@@H]2O[C@H](CO)[C@@H](O)[C@H](O)[C@H]2O)[C@H](CO[C@@H]2O[C@H](CO)[C@@H](O)[C@H](O)[C@H]2O)Cc2ccc(O)c(OC)c2)ccc1O [Secoisolariciresinol diglucoside]"
  REPORTED: "+"
- MOLECULE: "OC[C@H]1O[C@@H](Oc2cc3c(O)cc(O)cc3[o+]c2-c2ccc(O)c(O)c2)[C@H](O)[C@@H](O)[C@@H]1O [Cyanidin-3-glucoside]"
  REPORTED: "±"

---

# Tested on: intestinal microbiota (fecal samples) of human subjects
# PROTOCOL NOTES: in-vitro fermentations of fecal samples (intestinal microbiota-representing microarray) with phytonutrient precursor compounds
# Format: in vitro ADME
# CONDITION SUMMARY: fecal sample of Subject 7 (S7), in-vitro fermentation
MEASURE: Phytonutrient Producer Status: conversion of the phytonutrient precursor compound, S7

- COMPOUND: "O=c1c(O)c(-c2ccc(O)c(O)c2)oc2cc(O)cc(O)c12 [Quercetin]"
  REPORTED: "+"
- COMPOUND: "OC[C@H]1O[C@@H](Oc2cc3c(O)cc(O)cc3[o+]c2-c2ccc(O)c(O)c2)[C@H](O)[C@@H](O)[C@@H]1O [Cyanidin-3-glucoside]"
  REPORTED: "+"
- COMPOUND: "O=c1oc2c(O)c(O)cc3c(=O)oc4c(O)c(O)cc1c4c23 [Ellagic acid]"
  REPORTED: "−"
